Source of measurements: patent US20240368139A1

Test system: H3K9me2 in HCT116 cells
Assay: HCT116 H3K9me2 in-cell western assay
Type: cell-based
Conditions: Homo sapiens, HCT-116, 72 h, HCT116 cells, 72 hours incubation; read-out: H3K9me2 ICW IC50
Protocol: HCT116 cell line was purchased from ATCC (Manassas, VA, USA). […] Penicillin-Streptomycin and heat inactivated fetal bovine serum were purchased from Hyclone (Logan, UT, USA). DPBS, Corning^R were purchased from VWR (Radnor, PA, USA). […] The average of the ratio values (800 nm/700 nm) for each well was calculated and used to determine the percentage for each test well in the plate. […] IC50 values were calculated using a non-linear regression of Prism.
assay metric: IC50

> print(dat)
                                    molecule          result
 1  CNc1nc(Nc2cc3c(c(C4=CCNCCC4)c2F)OCC3)nc(C)c1F        < 100 nM
 2  [2H]Cc1cc(NC)nc(Nc2cc3c(c(C4=CCNCCC4)c2)OCC3)n1        < 100 nM
 3  CNc1cc(C)nc(Nc2cc3c(c(C4=CCNCCC4)c2F)OCO3)n1        < 100 nM
 4  [2H]C([2H])([2H])Nc1cc(C)nc(Nc2cc3c(c(C4=CCN(C)CCC4)c2)OCCC3)n1   100 to 500 nM
 5  COCCNc1cc(C)nc(Nc2cc3c(c(C4=CCN(C)CCC4)c2F)OCC3)n1        < 100 nM
 6  CCc1cc(NC)nc(Nc2cc3c(c(C4=CCNCCC4)c2)OCC3)n1        < 100 nM
 7  [2H]C([2H])([2H])Nc1cc(C)nc(Nc2cc3c(c(C4=CCNCCC4)c2F)OCC3)n1        < 100 nM
 8  CNc1cc(C)nc(Nc2cc3c(c(C4=CCCNCC4C)c2)OCC3)n1 (centres unmarked)  500 to 2000 nM
 9  [2H]Cc1nc(Nc2cc3c(c(C4=CCN(C)CCC4)c2)OCC3)nc(NC([2H])([2H])[2H])c1F   100 to 500 nM
10  CNc1nc(Nc2cc3c(c(C4=CCNCCC4)c2F)OCC3)nc(C)c1Cl        < 100 nM
11  COCCNc1cc(C)nc(Nc2cc3c(c(C4=CCN(C)CCC4)c2)OCC3)c1  500 to 2000 nM
12  [2H]Cc1cc(NC([2H])([2H])[2H])nc(Nc2cc3c(c(C4=CCN(C)CCC4)c2)OCCC3)n1        < 100 nM
13  Cc1cc(N(C)C)nc(Nc2cc3c(c(C4=CCN(C)CCC4)c2)OCC3)n1  500 to 2000 nM
14  [2H]Cc1nc(Nc2cc3c(c(C4=CCNCCC4)c2F)OCC3)nc(NCC([2H])([2H])[2H])c1F   100 to 500 nM
15  Cc1cc(NCC2CCOCC2)nc(Nc2cc3c(c(C4=CCNCCC4)c2)OCC3)n1   100 to 500 nM
16  COCCCNc1cc(C)nc(Nc2cc3c(c(C4=CCNCCC4)c2)OCC3)c1  500 to 2000 nM
17  CNc1cc(C)nc(Nc2cc3c(c(C4=CCN(C)CCC4)c2Cl)OCCC3)n1        < 100 nM
